Source: patent US5061794A

# reported MIC; entries follow
System: Ps. aeruginosa AK 109
Experiment: in vitro antibacterial activity, agar plate dilution method (MIC)
Type: cell-based, Pseudomonas aeruginosa
Details: Pseudomonas aeruginosa, AK109, 16 h, read-out: Minimum Inhibitory Concentration (MIC)
Record the value in µg/mL, omitting the unit from your answer.

molecule	value_measured
CO/N=C(\C(=O)N[C@@H]1C(=O)N2C(C(=O)O)=C(CSc3nnc(-c4ccc(O)c(O)c4)o3)CS[C@H]12)c1csc(N)n1	0.39

Please fill in: MIC reported for `CC(C)(O/N=C(\C(=O)N[C@@H]1C(=O)N2C(C(=O)O)=C(CSc3ncc(-c4ccc(O)c(O)c4)o3)CS[C@H]12)c1csc(N)n1)C(=O)O` = 0.39

Please fill in: MIC reported for Nc1nc(C(=NOC2CCCC2)C(=O)NC2C(=O)N3C(C(=O)O)=C(CSc4nc(C(=O)O)c(-c5ccc(O)c(O)c5)s4)CSC23)cs1 (stereo not drawn) = 12.5

Please fill in: MIC reported for `Nc1nc(/C(=N/OCc2ccccc2)C(=O)N[C@@H]2C(=O)N3C(C(=O)O)=C(CSc4nnc(-c5ccc(O)c(O)c5)o4)CS[C@H]23)cs1` = 0.39

Please fill in: MIC reported for CC(C)(ON=C(C(=O)NC1C(=O)N2C(C(=O)O)=C(CSc3nc(C(=O)O)c(-c4ccc(O)c(O)c4)s3)CSC12)c1csc(N)n1)C(=O)O (stereo not drawn) = 0.39

Please fill in: MIC reported for CON=C(C(=O)NC1C(=O)N2C(C(=O)O)=C(CSc3nc(-c4ccc(O)c(O)c4)cs3)CSC12)c1csc(N)n1 (stereo not drawn) = 3.12

---

Test system: S. aureus 209P NIHJ-JC1
Test: in vitro antibacterial activity, agar plate dilution method (MIC)
Type: cell-based
Details: Staphylococcus aureus, 16 h, read-out: Minimum Inhibitory Concentration (MIC), S. aureus 209P NIHJ-JC1; 10^6 CFU/ml, 37° C., 16 hours
Procedure: The in vitro antibacterial activities of the compounds of the present invention against various microorganisms, were measured by the following agar plate dilution method. One platinum loopfull of each test microorganism incubated overnight in Mueller Hinton broth, was inoculated to Mueller Hinton agar (inoculum size: 10^6 CFU/ml). […] After incubation at 37° C. for 16 hours, the minimum inhibitory concentrations (MIC: μg/ml) were measured.
# reported MIC; entries follow
Record the value in µg/mL, omitting the unit from your answer.

compound	value_measured
Nc1nc(/C(=N/OC(C(=O)O)c2ccc(O)c(O)c2)C(=O)N[C@@H]2C(=O)N3C(C(=O)O)=C(CSc4nnc(-c5ccc(O)c(O)c5)o4)CS[C@H]23)cs1 (stereo partly drawn) [compound 16]	1.56
CCON=C(C(=O)N[C@@H]1C(=O)N2C(C(=O)[O-])=C(CSc3nc(-c4ccc(OC(C)=O)c(OC(C)=O)c4)cs3)CS[C@H]12)c1csc(N)n1.[Na+] [Ex. 49]	1.56

Okay, next one:
Please fill in: MIC reported for CC(C)(O/N=C(\C(=O)N[C@@H]1C(=O)N2C(C(=O)O)=C(CSc3ncc(-c4ccc(O)cc4)o3)CS[C@H]12)c1csc(N)n1)C(=O)O [compound 24, reference compound] = 6.25

---

# reported MIC; entries follow
Tested on: K. pneumoniae No. 42
Assay: in vitro antibacterial activity, agar plate dilution method (MIC)
Type: cell-based
Conditions: Klebsiella pneumoniae, NO.42, 16 h, read-out: Minimum Inhibitory Concentration (MIC), *K. pneumoniae No. 42, lactamase-producing strain; 10^6 CFU/ml
Record the value in µg/mL, omitting the unit from your answer.

Example compounds with recorded MIC:
compound	value_measured
CO/N=C(\C(=O)N[C@@H]1C(=O)N2C(C(=O)O)=C(CSc3nnc(-c4ccc(OC(C)=O)c(OC(C)=O)c4)o3)CS[C@H]12)c1csc(N)n1	0.025
Nc1nc(C(=NOCC(=O)O)C(=O)NC2C(=O)N3C(C(=O)O)=C(CSc4nc(-c5ccc(O)c(O)c5)cs4)CSC23)cs1 (stereo not drawn)	0.1

For the compound CO/N=C(\C(=O)N[C@@H]1C(=O)N2C(C(=O)O)=C(CSc3ncc(-c4ccccc4)o3)CS[C@H]12)c1csc(N)n1 [compound 21, reference compound] , the measured MIC on K. pneumoniae No. 42 was 3.12

---

System: Ps. aeruginosa AK 109
Assay: in vitro antibacterial activity, agar plate dilution method (MIC)
Type: cell-based, Pseudomonas aeruginosa
Settings: Pseudomonas aeruginosa, AK109, 16 h, Ps. aeruginosa AK 109; 10^6 CFU/ml; read-out: Minimum Inhibitory Concentration (MIC)
Structures can show the parent of a compound that is named as a salt.
# reported MIC; entries follow

molecule	quantity_measured	value_measured
C=CCO/N=C(\C(=O)N[C@@H]1C(=O)N2C(C(=O)O)=C(CSc3nnc(-c4ccc(O)c(O)c4)o3)CS[C@H]12)c1csc(N)n1 [Ex. 8]	MIC	0.2 µg/mL
CO/N=C(\C(=O)N[C@@H]1C(=O)N2C(C(=O)O)=C(CSc3nnc(-c4ccccc4)s3)CS[C@H]12)c1csc(N)n1 [compound 5, trifluoroacetate, reference compound]	MIC	50 µg/mL
CC(C)(O/N=C(\C(=O)N[C@@H]1C(=O)N2C(C(=O)O)=C(CSc3nnc(-c4ccc(O)c(O)c4)s3)CS[C@H]12)c1csc(N)n1)C(=O)O [Ex. 34]	MIC	0.1 µg/mL
CCO/N=C(\C(=O)N[C@@H]1C(=O)N2C(C(=O)O)=C(CSc3nnc(-c4ccc(OC(C)=O)c(OC(C)=O)c4)o3)CS[C@H]12)c1csc(N)n1 [Ex. 6]	MIC	0.1 µg/mL
CC(=O)Oc1ccc(-c2nc(SCC3=C(C(=O)O)N4C(=O)[C@@H](NC(=O)/C(=N\OC(C)(C)C(=O)O)c5csc(N)n5)[C@H]4SC3)sc2CC(=O)O)cc1 [compound 20, reference compound]	MIC	25 µg/mL

Please fill in: MIC reported for CON=C(C(=O)NC1C(=O)N2C(C(=O)O)=C(CSc3nc(-c4ccc(O)c(O)c4)c(CC(=O)O)s3)CSC12)c1csc(N)n1 (stereo not drawn) [compound 58] = > 100 µg/mL

---

# reported MIC; entries follow
Test system: K. pneumoniae No. 42
Experiment: in vitro antibacterial activity, agar plate dilution method (MIC)
Assay type: cell-based
Settings: Klebsiella pneumoniae, NO.42, 16 h, read-out: Minimum Inhibitory Concentration (MIC), *K. pneumoniae No. 42, lactamase-producing strain; 10^6 CFU/ml

Example compounds with recorded MIC:
compound	MIC
Nc1nc(/C(=N/OC2(C(=O)O)CC2)C(=O)N[C@@H]2C(=O)N3C(C(=O)O)=C(CSc4ncc(-c5ccc(O)c(O)c5)o4)CS[C@H]23)cs1 [Ex. 66]	0.1 µg/mL
CC(C)(O/N=C(\C(=O)N[C@@H]1C(=O)N2C(C(=O)O)=C(CSc3nc(C(=O)O)c(-c4ccccc4)s3)CS[C@H]12)c1csc(N)n1)C(=O)O [compound 14, reference compound]	1.56 µg/mL

Please fill in: MIC reported for CO/N=C(\C(=O)N[C@@H]1C(=O)N2C(C(=O)O)=C(CSc3nc(-c4ccccc4)cs3)CS[C@H]12)c1csc(N)n1 [compound 9, reference compound] = 1.56 µg/mL

Please fill in: MIC reported for CC(=O)Oc1ccc(-c2nc(SCC3=C(C(=O)O)N4C(=O)C(NC(=O)C(=NOC5(C(=O)O)CC5)c5csc(N)n5)C4SC3)sc2CC(=O)O)cc1OC(C)=O (centres unmarked) [Example 60 (II)] = 0.1 µg/mL

Please fill in: MIC reported for C#CCON=C(C(=O)NC1C(=O)N2C(C(=O)O)=C(CSc3nc(C(=O)O)c(-c4ccc(O)c(O)c4)s3)CSC12)c1csc(N)n1 (centres unmarked) [Ex. 56] = 0.1 µg/mL

Please fill in: MIC reported for CC(=O)Oc1ccc(-c2nc(SCC3=C(C(=O)O)N4C(=O)C(NC(=O)C(=NOC(C)(C)C(=O)O)c5csc(N)n5)C4SC3)sc2CC(=O)O)cc1OC(C)=O (centres unmarked) [Example 59 (II)] = 0.2 µg/mL

Please fill in: MIC reported for Nc1nc(/C(=N/Oc2ccccc2)C(=O)N[C@@H]2C(=O)N3C(C(=O)O)=C(CSc4nnc(-c5ccc(O)c(O)c5)o4)CS[C@H]23)cs1 [Ex. 22] = 0.0125 µg/mL

Please fill in: MIC reported for CO/N=C(\C(=O)N[C@@H]1C(=O)N2C(C(=O)O)=C(CSc3nc(-c4ccccc4)c(CC(=O)O)s3)CS[C@H]12)c1csc(N)n1 [compound 15, reference compound] = 0.78 µg/mL

Please fill in: MIC reported for CCO/N=C(\C(=O)N[C@@H]1C(=O)N2C(C(=O)O)=C(CSc3nnc(-c4ccc(OC(C)=O)c(OC(C)=O)c4)o3)CS[C@H]12)c1csc(N)n1 [Ex. 6] = 0.025 µg/mL

Please fill in: MIC reported for CON=C(C(=O)NC1C(=O)N2C(C(=O)O)=C(CSc3nc(-c4ccc(OC(C)=O)c(OC(C)=O)c4)cs3)CSC12)c1csc(N)n1 (centres unmarked) [compound 40] = 0.2 µg/mL

Please fill in: MIC reported for Nc1nc(/C(=N/OCc2ccc(O)c(O)c2)C(=O)N[C@@H]2C(=O)N3C(C(=O)O)=C(CSc4nnc(-c5ccc(O)c(O)c5)o4)CS[C@H]23)cs1 [Ex. 14] = 0.39 µg/mL
